test: Mouse pharmacokinetics after oral dosing; assay type: in vivo; details: male, C57Bl/6, mouse, plasma; single 50 mg/kg PO
readout-name: Tmax (min)
The figure you give is taken to be in min; do not add the unit.

Would you mind telling me what Tmax value was observed for C=CC(=O)N1CCCN(C(=O)c2cc(Sc3cnc(NC(=O)C4CC4)s3)c(C)cc2OC)C[C@H]1C ?
30

---

System: IL-2 secretion by Jurkat T cells
Experiment: Inhibition of IL-2 production in Jurkat cells
Type: cell-based
Details: Homo sapiens, washout, anti-CD3 18 hours, 15 determinations
Description: Jurkat cells (0.25×10^6) in Dulbecco's Modified Eagle's medium (Gibco) supplemented with 5% FBS were seeded in each well of a 96 well MultiScreenR HV filter plate (EMD Millipore) placed on top of a 96 well collection plate. CPI 818 was serially diluted in DMSO and added to the culture. […] Human IL-2 concentration was measured with the AlphaLISA human IL2 Kit (PerkinElmer) and data collected on an Envision Plate Reader (PerkinElmer). Data were analyzed and graphed using GraphPad Prism version b7.0b. […]
readout-name: IC50

Would you mind telling me what IC50 value was observed for C=CC(=O)N1CCCN(C(=O)c2cc(Sc3cnc(NC(=O)C4CC4)s3)c(C)cc2OC)C[C@H]1C [CPI-818] ?
136 nM

Each recorded value in this set is attributed to patent US20250213587A1.
